# target-or-system: SCRIB_4, Q14160
# Sequence (Q14160 1095-1204): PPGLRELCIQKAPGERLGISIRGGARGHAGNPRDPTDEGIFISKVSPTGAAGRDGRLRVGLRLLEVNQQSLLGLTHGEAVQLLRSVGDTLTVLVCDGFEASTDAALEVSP
# assay: holdup assay
# Parameters: key: below the threshold = too weak to quantify, mostly under pKd 3.1 to 4
# run-parameters: plain residues with an end cap or a label only (N-terminal biotin on a linker: ttds)
measure-name: pKd

See these solved cases before continuing.
1) SSRTRRETQL [HPV16-E6, P03126]: below the threshold
2) STLTIFETAL [ABCC4, O15439]: 4.29
3) RSLEEEESQL [GRASP, Q7Z6J2]: below the threshold
4) SVWLRKETRV [CYSLTR2, Q9NS75]: 4.91
5) SRPQRTQTQV [HPV67-E6, A4U7F2]: below the threshold
6) QSARYRDTEL [TJP2, Q9UDY2]: below the threshold

As a next step, examine the binder that follows.
For reference, reported pKd for PKTPPTDTSV [KIR3DL3, Q8N743] stands at below the threshold
